System: E. coli 1346
Assay: Antibacterial activity of the products per se, serial dilution method in liquid medium (Test E)
Format: cell-based
Settings: Table 4; test E, product per se
Counter-ions that a name gives are not always drawn.
Recorded endpoint: MIC E. coli 1346 (E) (µg/mL)

> print(dat)
                                   molecule  relational.operator  endpoint.result
1  O=C(O)C1=C(CSc2nnnn2CC(=O)N2CCOCC2)O[C@@H]2CN[C@@H]3C(=O)N1[C@@H]32 [29(l)]                    >               32
2  O=C(NCc1ccc(O)cc1)OCC1=C(C(=O)O)N2C(=O)[C@@H]3[C@H]2[C@H](C1)CN3C(=O)C(F)(F)F [102(b), sodium salt]                    =                1
3  CC(=O)N1C[C@H]2OC(CSc3nnnn3CC(N)=O)=C(C(=O)O)N3C(=O)[C@@H]1[C@@H]23 [32(e), sodium salt]                    =                4
4  O=C(O)C1=C(CO)S[C@@H]2CN(C(=O)Nc3ccc(O)cc3)[C@@H]3C(=O)N1[C@@H]32 [41(d) Byproduct]                    >               32

* * *

Test system: E. coli 1346
Test: Antibacterial activity of the products per se, serial dilution method in liquid medium (Test E)
Format: cell-based
Conditions: Table 4; test E, product per se
Structures can show the parent of a compound that is named as a salt.
This listing pairs compounds with measured MIC E. coli 1346 (E).
Recorded endpoint: MIC E. coli 1346 (E) (µg/mL)

> print(dat)
                                   compound     recorded.endpoint  relational.operator  endpoint.result
1  CC(=O)OCC1=C(C(=O)O)N2C(=O)[C@@H]3[C@H]2[C@H](C1)CN3C(=O)C(F)(F)F [25(d), sodium salt]  MIC E. coli 1346 (E)                    =                4
2  O=C(O)C1=C(Sc2ccncc2)C[C@@H]2CN(C(=O)Nc3ccc(O)cc3)[C@@H]3C(=O)N1[C@H]23 [3(o), sodium salt]  MIC E. coli 1346 (E)                    >               32
3  O=C(Cn1nnnc1SCC1=C(C(=O)O)N2C(=O)[C@H]3NC[C@@H](C1)[C@H]32)Nc1ccc(O)cc1  MIC E. coli 1346 (E)                    =                2
4  Cn1nc[n+](C)c1CSC1=C(C(=O)[O-])N2C(=O)[C@@H]3[C@H]2[C@H](C1)CN3C(=O)C(F)(F)F  MIC E. coli 1346 (E)                    =               32

* * *

Documented MIC E. coli 1346 (E) across a set of compounds
Tested on: E. coli 1346
Test: Antibacterial activity of the products per se, serial dilution method in liquid medium (Test E)
Assay type: cell-based
Conditions: Table 4; test E, product per se
From the text: The antibacterial activity of the products per se is illustrated on the basis of Table 3 hereinafter, the minimum inhibitory concentration […] in vitro against E. coli 1346 being determined using the serial dilution method in liquid medium: […]
Structures can show the parent of a compound that is named as a salt.
Recorded endpoint: MIC E. coli 1346 (E) (µg/mL)

> print(dat)
                                   compound   system.name     recorded.endpoint  endpoint.result
1  CC(=O)N1C[C@H]2CC(COC(=O)NCC(F)(F)F)=C(C(=O)O)N3C(=O)[C@@H]1[C@@H]23 [92(a), sodium salt]  E. coli 1346  MIC E. coli 1346 (E)                4
2  Cn1nnnc1SCC1=C(C(=O)O)N2C(=O)[C@@H]3[C@H]2[C@H](C1)CN3C(=O)NCCC(=O)OC(C)(C)C [18(f), sodium salt]  E. coli 1346  MIC E. coli 1346 (E)                4
3  CNC(=O)OCC1=C(C(=O)O)N2C(=O)[C@H]3NC[C@@H](C1)[C@H]32  E. coli 1346  MIC E. coli 1346 (E)                4
